Molecular target: proMMP9(67-444;ΔFnII) (SEQ ID NO:5) (Homo sapiens, UniProt P14780, DEL216-390)
Construct: start methionine (N)
Sequence (P14780 with tags, fused parts or gaps DEL216-390): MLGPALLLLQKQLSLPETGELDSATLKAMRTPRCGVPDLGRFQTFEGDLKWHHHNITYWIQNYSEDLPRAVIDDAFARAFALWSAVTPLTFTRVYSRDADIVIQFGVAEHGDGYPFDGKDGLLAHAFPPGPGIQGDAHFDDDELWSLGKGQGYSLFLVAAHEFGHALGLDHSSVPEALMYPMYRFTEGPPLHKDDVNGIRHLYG
Test: ThermoFluor binding assay with proMMP9(67-444;ΔFnII)
Settings: pH 7.0
pKd: −log10 of the molar value.
parameter.measured: pKd

smiles: Cc1nc(-c2cnccn2)sc1-c1csc(Nc2cc(C(N)=O)ccc2OC(C)C)n1
pKd: 6.19
//
smiles: Cc1nc(C)c(-c2nc(Nc3cc(C(N)=O)ccc3OC(C)C)sc2Br)s1
pKd: 5.51
//
smiles: Cc1nc(CN2CCN(C(C)C)CC2)sc1-c1csc(Nc2cc(C(N)=O)ccc2OC(C)C)n1
pKd: 5.49
//
smiles: COc1ccc(C(=O)NCc2ccccc2)cc1Nc1nc(-c2sc(N)nc2C)cs1
pKd: 5.64
//
smiles: CCOc1ccc(C(N)=O)cc1Nc1nc(-c2sc(C(=O)N3CCCN(C)CC3)nc2C)cs1
pKd: 5.66

P: CCOC(=O)c1ccc(OCC)c(Nc2nc(-c3sc(N)nc3C)cs2)c1
Q: Cc1nc(CN(C)C)sc1-c1csc(Nc2cc(C(N)=O)ccc2OC(C)C)n1
R: CCOc1ccc(C(N)=O)cc1Nc1nc(-c2sc(C(=O)N3CCN(CC)CC3)nc2C)cs1
S: Cc1nc(NC(=O)C2CCN(C)CC2)sc1-c1csc(Nc2cc(C(N)=O)ccc2OC(C)C)n1
## Input # rank by pKd, ascending (min first) Form entry: labels listed in requested order.
## Output Q, R, P, S
(Q: 5.33, R: 5.70, P: 6.21, S: 6.60)

Values from patent US20120129842A1
